Record form. Attribute: minimal effective concentration. Fill in for each entry.
# Tested on: Lettuce seeds
# experimental-protocol: Filter paper bioassay on germination and early development of Lettuce seeds
# Format: in vivo
# measurement-context: 144 h, lowest concentration causing malformation of radicle or shoots; visually assessed six days after beginning; 0 to 1 mmol/l; read-out: MEC, score (Minimal Effective Concentration, activity score) (converted)

Quick batch: minimal effective concentration for everything below.
1. O=C(O)CSc1ccc(F)c(Br)n1 [compound 7151]
2. CCOC(=O)CSc1ccc(F)c(Br)n1 [compound 7114]
3. O=C(O)CCCSc1ccc(Br)c(Br)n1 [compound 7174]

Data returned:
< 1 µM
< 1 µM
< 1 µM

* * *

# Test system: Lettuce seeds
# experimental-protocol: Filter paper bioassay on germination and early development of Lettuce seeds
# Format: in vivo
# measurement-context: 144 h, lowest concentration causing malformation of radicle or shoots; visually assessed six days after beginning; 0 to 1 mmol/l; read-out: MEC, score (Minimal Effective Concentration, activity score) (converted)
test-readout: minimal effective concentration (µM)
One number for each entry, in µM.

Quick batch: minimal effective concentration for everything below.
1. CCOC(=O)CSc1csc(Cl)n1 [compound 5850]
2. O=C(O)CSc1cccc(Br)n1 [compound 6688]
3. CCOC(=O)C(Cl)(Cl)c1csc(Cl)n1 [compound 7188]

Data returned:
1: 10; 2: 1; 3: 100

Quick batch: minimal effective concentration for everything below.
1. CCOCCOCCOC(=O)COc1ccc(Br)c(Br)n1 [compound 7172]
2. O=C(O)CNc1nc(Cl)cs1 [compound 7125]
3. CC(Sc1ccc(Br)c(Br)n1)C(=O)O (centres unmarked) [compound 7182]
4. CCOC(=O)CSc1cccc(Br)n1 [compound 6693]

Data returned:
1. 1
2. 10
3. 10
4. 1

Quick batch: minimal effective concentration for everything below.
1. COC(=O)Cc1ncsc1C#N [compound 7168]
2. O=C(O)CSc1nc(Cl)cs1 [compound 7109]

Data returned:
10
10
